Catalogue of growth inhibition readings, one per entry.
assay: inhibition of 3D7 malaria parasite growth – strain 3D7 (AID 2306);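 further: 0% = DMSO wells and 100% = chloroquine plus artemisinin control wells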; details: P. falciparum 3D7 erythrocytic growth, LDH absorbance, 72 h; at 2 µM; stronger effect = higher value
Expressed in %, but write only the number.

Answered examples (10):
compound: CCCCNC(=O)[C@@H]1CCCN1C(=O)c1ccc(O)c(-c2ccc(Cl)c(Cl)c2)c1
value unit: %
growth inhibition: 98

compound: COC(=O)[C@@H](NC(=O)[C@H](Cc1ccc(OC)c(OC)c1)Nc1ccc(C#N)c2ccccc12)c1ccc(O)cc1
value unit: %
growth inhibition: 101

compound: COc1ccc2nccc([C@@H](O)CN3CCC(NCc4cc5c(F)ccc(F)c5[nH]4)CC3)c2n1
value unit: %
growth inhibition: 101

compound: CN1CCC(NC(=O)c2cc(Oc3ccc4c(c3)CCN4C(=O)Nc3cccc(C(F)(F)F)c3)ccn2)CC1
value unit: %
growth inhibition: 92

compound: Cc1nc(C)c(CC(=O)Nc2ccc(-c3cccc(-c4nc5ccc(C(F)(F)F)cc5[nH]4)c3)cc2)s1
value unit: %
growth inhibition: 86

compound: Cc1noc(C)c1-c1cccc(CNCc2ccc(-c3cccc(-c4nc5c(C)cccc5[nH]4)c3)cc2)c1
value unit: %
growth inhibition: 101

compound: Cc1nc(C)c(CC(=O)Nc2cccc(-c3cccc(-c4nc5ccc(C(F)(F)F)cc5[nH]4)c3)c2)s1
value unit: %
growth inhibition: 95

compound: CC1(C)CCC(C)(C)c2c1ccc(C1CCN(CCCCNC(=O)c3ccc(-c4ccc(C#N)cc4)cc3)CC1)c2O
value unit: %
growth inhibition: 100

compound: COc1ccc(-n2nc(C)c3c2NC(=O)CC3c2ccccc2OCc2ccccc2F)cc1 (stereo not drawn)
value unit: %
growth inhibition: 93

compound: COc1ccc(-c2cc(-c3ccc(S(C)(=O)=O)cc3)cnc2N)cn1
value unit: %
growth inhibition: 94

# growth inhibition of `O=C(Nc1cccc(-c2ccc(-c3nc4ccc(F)cc4[nH]3)s2)c1)c1ccncc1` = 96

# growth inhibition of Cc1ccc(Nc2nccc(NCC(O)c3cccc(F)c3)n2)cc1 (stereo not drawn) = 95

# growth inhibition of `Cc1cc(N[C@@H](Cc2ccccc2)C(=O)NC2CCCC2)nc(NCCCOC(C)C)n1` = 92

# growth inhibition of `O=C(NCc1ccc(Cl)c(Cl)c1)c1ccc(-c2nc3cc(F)c(F)cc3[nH]2)cc1` = 81

# growth inhibition of `Cc1nc2ccc(Nc3nccc(-c4c(-c5cccc(NC(=O)c6c(F)cccc6F)c5)nn5ccccc45)n3)cc2nc1C` = 91
